Taken from ChEMBL document CHEMBL1201862.

For each entry below, report its GI50 value.
system: SK-OV-3; test: NCI tumour cell line growth inhibition, 48 h
Activity calls are given as the source filed them. Cut-off read from the data, not from the text of the source: active = GI50 up to about 1.1 µM and inactive = higher.

Form field: GI50 recorded for "O=C(O)[C@@H]1CCC(=O)N1C(c1ccc2c(c1)OCO2)c1ccc2c(c1)OCO2" with SK-OV-3 (enter value)
> 10 µM (inactive)

Missing value: GI50, SK-OV-3, entry "COc1cccc(/C=C/c2cnc3ccccc3n2)c1OC" . Fill in?
71.6 µM (inactive)

Observed GI50 on SK-OV-3 for Cc1ccc2c(c1)C1(C)OC(C=CC1=O)O2 (stereo unspecified) , please.
3.24 µM (inactive)

Tell me reported GI50 for "CC(C)(Oc1ccc(-c2cccc3ccccc23)cc1)C(=O)O" , tested with SK-OV-3.
> 100 µM (inactive)

Give SK-OV-3 GI50 for "Cc1ccc(C)n1-n1c(Cc2ccccc2)n[nH]c1=O"
> 100 µM (inactive)

API: value(readout= GI50, system= SK-OV-3, query= CN1C(=O)c2c(ccc3c2OCO3)C2C(O)Cc3cc4c(cc3C21)OCO4 (stereo unspecified) )
2.98 µM (inactive)

====

system: HOP-92; assay: NCI tumour cell line growth inhibition, 48 h
Activity calls are given as the source filed them. Cut-off read from the data, not from the text of the source: active = GI50 up to about 1.1 µM and inactive = higher.
Assign a class; possible classes are active, inactive

Recorded call for "CC(=O)c1c[nH]cc1CO" ?
inactive

Outcome logged for "CC(C)(Oc1ccc(-c2cccc3ccccc23)cc1)C(=O)O" in this assay:
inactive

Assay outcome for "COCn1c2ccc(OC(C)=O)cc2c2c(=O)oc(N(C)C)nc21" : what was it?
inactive

Hello, I am checking results. What call was entered for "C[n+]1cccc2ccc(OC(=O)c3ccccc3)cc21" ?
inactive

// outcome(item) with item = Cc1ccc(N2Cc3c(ccc4ccccc34)OP2(=S)N2CCCC2)cc1 (stereo unspecified)
inactive

So what was the verdict on "Cc1cc2c(cc1Cl)SC(NNc1cnc3ccccc3n1)=NS2(=O)=O" in this test?
inactive

Which outcome was entered for the molecule "CCOC(=O)/C(C#N)=N\Nc1ccc(-n2c(C)nc3ccc(Br)cc3c2=O)cc1" in this test?
inactive

Short answer needed: outcome of this test for "COc1ccc(C)cc1Nc1nnc(-c2ccccc2N)s1" ?
inactive

What call does the record list for "O=C1C=C/C(=N/c2cccc3c(/N=C4/C=CC(=O)O4)cccc23)O1" ?
inactive

I would be grateful if you could indicate the recorded call for "COC(=O)C1=C(OC)[C@H]2C#C/C=C\C#C[C@@H]3Nc4c(cc(O)c5c4C(=O)c4ccccc4C5=O)[C@]24O[C@@]34[C@H]1C" .
active

What outcome does the record of this test show for "S=c1[nH]n2c(CCCCCCCCc3nnc4sc(=S)[nH]n34)nnc2s1" ?
inactive

What did this assay record as the result for "O=C(NC12CC3CC(CC(F)(C3)C1)C2)c1ccccc1" ?
inactive

Field: outcome | Entry: "Cc1ccc(S(=NS(=O)(=O)c2ccc(C)cc2)c2ccc(C)cc2)cc1"
inactive

Each molecule tested received a call. Report the one for O=C1CC(c2ccccc2)NCCCCN2CC(CN1)C(C(O)c1ccccc1)C2=O (stereo unspecified) .
inactive

Name the outcome recorded for "CC(=O)Oc1ccccc1[C@H]1CC(=O)C[C@H](c2ccccc2OC(C)=O)C12C(=O)c1ccccc1C2=O" in the assay.
inactive

Which outcome did this test record for the molecule "CC(=O)Nc1ccc2c(C)c3c(nc2n1)[nH]c1ccccc13" ?
inactive

What did this assay record as the result for "NC(=O)C(=O)n1ncc(Cl)c(Cl)c1=O" ?
inactive

Short answer needed: outcome of this test for COC(=O)[C@]1(c2cc3ccccc3[nH]2)CC2CNC1C1OC(C)(C)OC21 (stereo partly specified) ?
inactive

For C[C@]12CCNC(=O)C=C1CC[C@@H]1C2CC[C@@]2(C)C1CC[C@@H]2OC(=O)COc1ccc(N(CCCl)CCCl)cc1 (stereo partly specified) , what call appears in the results of this test?
inactive

Hi, do you know how O=[N+]([O-])c1ccc(C2CC(c3ccccc3Cl)=Nc3ccccc3[S+]2[O-])cc1 (stereo unspecified) came out in this test?
inactive

Answer briefly: the call reported for C[N+](C)(C)c1ncnc2c1ncn2C1CCCO1 (stereo unspecified) in this assay.
inactive

====

tested on: PC-3; test: NCI tumour cell line growth inhibition, 48 h
Activity calls are given as the source filed them. Cut-off read from the data, not from the text of the source: active = GI50 up to about 1.1 µM and inactive = higher.
I'd be grateful if you could share measured GI50 for these entries.

Returns the measured GI50 for the input compound. Input: "COc1cccc(/C=C/c2cnc3ccccc3n2)c1OC"
25.1 µM (inactive)

Request the reported GI50 associated with "COC(=O)C1=C(CCCCO[Si](C)(C)C(C)(C)C)NC(=O)N2[C@@H](CCOCc3ccccc3)CC[C@H]12"
21.1 µM (inactive)

Bench note: what GI50 did "O=C(O)Cc1ccc(N2N=C(c3ccccc3)CC2=O)cc1" show?
> 100 µM (inactive)

For the compound shown here, O=C1c2cccc(O)c2C(=O)c2c(OC3OC(CO)C(O)C(O)C3O)cccc21 (stereo unspecified) , give the reported GI50.
24.5 µM (inactive)

Fill blank: measured GI50 of the compound "CCN(CC)CCOc1ccccc1/C=C/c1noc2ccccc12" is ____.
4.89 µM (inactive)

I would be grateful if you could share the reported GI50 for "COC(=O)c1ccc(OCCn2nnc(C(=O)NN)c2C(=O)NN)cc1" .
> 100 µM (inactive)

====

For each of the compounds below, state its GI50.
system: KM12; assay: NCI tumour cell line growth inhibition, 48 h
Active and inactive are the calls of the source. Cut-off read from the data, not from the text of the source: active = GI50 up to about 1.1 µM and inactive = higher.

Consider the compound "Cc1cc2c(cc1Cl)Sc1nnc(Nc3ccccc3)n1S2(=O)=O" and give its measured GI50.
12 µM (inactive)

Given the entry "O=C1Nc2ccccc2/C1=N/Nc1nc(-c2ccc([N+](=O)[O-])cc2)cs1" , report its measured GI50.
28.5 µM (inactive)

# query: GI50 of entry "C=CCc1cc(-c2cc(CC=C)c(O)c(CNC)c2)cc(CNC)c1O"
16.6 µM (inactive)

Which value of GI50 has been reported for "O=C1C=CC(=O)c2cc(Sc3ccccc3)c(=O)c(Sc3ccccc3)cc21" in the records?
> 100 µM (inactive)

# input compound: "O=Cc1ccc2c(c1)CC1(Cc3ccccc3C1)C2" ; wanted: its GI50
55.8 µM (inactive)

GET /values?readout=GI50&item= COc1c(O)c(C=O)c2c(O)c(-c3c(C)cc4c(C(C)C)c(OC)c(O)c(C=O)c4c3O)c(C)cc2c1C(C)C [6,6'-METHOXYGOSSYPOL]
5.05 µM (inactive)

I would be grateful if you could share the reported GI50 for N#CC1=C(c2ccccc2)OC2(N)OC(c3ccccc3)=C(C#N)C12C#N (configuration not stated) .
> 100 µM (inactive)

Tell me the measured GI50 of O=[N+]([O-])c1cccc(C2ON2C2CCCCC2)c1 (configuration not stated) , please.
8.81 µM (inactive)

Report GI50 for "CCOC(=O)/C(C#N)=N\Nc1ccc(-n2c(C)nc3ccc(Br)cc3c2=O)cc1" please.
40.3 µM (inactive)

Given NC1=NCC(c2ccccn2)C1c1ccc(F)cc1 (configuration not stated) , state its recorded GI50.
> 100 µM (inactive)

Consider the compound "Cc1ccc(SSCCCCCS(=O)O)cc1" and give its measured GI50.
36.1 µM (inactive)

Any idea what GI50 was measured for "CC(=O)Oc1ccc(/C=C/C(=O)O[C@@H](C(=O)O)[C@@H](OC(=O)/C=C/c2ccc(OC(C)=O)c(OC(C)=O)c2)C(=O)O)cc1OC(C)=O" ?
> 100 µM (inactive)

Look up GI50 for this compound: CC(C)(C)OC(=O)NCCCCC(N)C(N)=O (configuration not stated)
> 100 µM (inactive)

# get_value(readout='GI50', item= "Cc1ccc2c(=O)c(C(=O)N(CCO)CCO)c[nH]c2n1" )
> 100 µM (inactive)

Can you share its GI50? I mean this compound: COC(=O)C(C(=O)C(=O)Nc1ccc(C(F)(F)F)cc1[N+](=O)[O-])c1csc(-n2nc(-c3ccccc3)cc2-c2ccccc2)n1 (configuration not stated)
> 100 µM (inactive)

Value lookup for GI50; key = "N#CC(C#N)=C/C=C/c1ccccc1[N+](=O)[O-]"
5.02 µM (inactive)

Data request, read-out GI50, for "COc1ccc(/C=N/N=C(\N)NO)cc1O"
45.8 µM (inactive)

# GI50 lookup, item "Cn1cc(C=C(C#N)C#N)c(=O)n(C)c1=O"
> 100 µM (inactive)

Fill blank: measured GI50 of the compound "NC(=S)SCCC(=O)O" is ____.
> 100 µM (inactive)

# input compound: COC(=O)/C(C#N)=C1\CCC(C(=O)OC)N1C (configuration not stated) ; wanted: its GI50
> 100 µM (inactive)

Param item = O=C1c2cccc(O)c2C(=O)c2c(OC3OC(CO)C(O)C(O)C3O)cccc21 (configuration not stated) ; retrieve measured GI50.
30.3 µM (inactive)

Endpoint output: GI50 of "CC(=O)Oc1ccccc1[C@H]1CC(=O)C[C@H](c2ccccc2OC(C)=O)C12C(=O)c1ccccc1C2=O" . Value?
59.6 µM (inactive)
